- Test system: caspase-3 and -7 activities in RS4-11 cells
- method summary: Caspase-3/7 activation (Caspase-Glo 3/7) in RS4-11 cells
- Type: cell-based
- stated conditions: Homo sapiens, 3.5 h incubation, read-out: Cas-3/7 (EC50 code)
pEC50: −log10 of the molar value.
readout type: pEC50

Worked cases, answers included:
# smiles representation, pEC50
records = [
    ("CN1CCN(C(=O)c2ccc(CN(C(=O)c3cc(-c4cc5c(cc4C(=O)N4Cc6ccccc6C[C@H]4CN4CCOCC4)OCO5)n4c3CCCC4)c3ccc(O)cc3)cc2)CC1", "≥ 7.00"),
    ("O=C(c1cc(-c2cc3c(cc2C(=O)N2Cc4ccccc4C[C@H]2CN2CCOCC2)OCO3)n2c1CCCC2)N(Cc1ccccc1)c1ccc(O)cc1", "6.60 to 7.00"),
]

Below: the item to evaluate.
Prompt: So what does the record say about pEC50 for O=C(c1cc(-c2cc3c(cc2C(=O)N2Cc4ccccc4C[C@H]2CN2CCOCC2)OCO3)n2c1CCCC2)N(Cc1ccccc1-c1ccccc1)c1ccc(O)cc1 ?
Completion: < 6.60

---

- system under test: BCL-2 (Homo sapiens (Human), UniProt P10415)
- Sequence (P10415 whole entry): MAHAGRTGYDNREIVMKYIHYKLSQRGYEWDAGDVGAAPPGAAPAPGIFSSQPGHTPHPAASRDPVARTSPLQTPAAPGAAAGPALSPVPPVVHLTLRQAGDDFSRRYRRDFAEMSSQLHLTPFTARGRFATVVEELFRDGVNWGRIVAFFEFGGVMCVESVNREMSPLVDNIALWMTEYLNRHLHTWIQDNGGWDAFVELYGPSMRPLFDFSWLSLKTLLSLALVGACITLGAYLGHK
pIC50: −log10 of the molar value.
readout type: pIC50

Study these solved cases before continuing.
# smiles representation, pIC50
records = [
    ("Cc1cc(C(F)(F)F)ccc1CN(C(=O)c1cc(-c2cc3c(cc2C(=O)N2Cc4ccccc4C[C@H]2CN2CCOCC2)OCO3)n2c1CCCC2)c1ccc(O)cc1", "8.00 to 8.30"),
    ("NC(=O)c1ccc(CN(C(=O)c2cc(-c3cc4c(cc3C(=O)N3Cc5ccccc5C[C@H]3CN3CCOCC3)OCO4)n3c2CCCC3)c2ccc(O)cc2)cc1", "8.00 to 8.30"),
    ("O=C(c1cc(-c2cc3c(cc2C(=O)N2Cc4ccccc4C[C@H]2CN2CCOCC2)OCO3)n2c1CCCC2)N(Cc1ccc(OC(F)(F)F)cc1)c1ccc(O)cc1", "< 7.30"),
    ("CN1CCN(C(=O)c2ccc(CN(C(=O)c3cc(-c4cc5c(cc4C(=O)N4Cc6ccccc6C[C@H]4CN4CCOCC4)OCO5)n4c3CCCC4)c3ccc(O)cc3)cc2)CC1", "8.00 to 8.30"),
    ("Cc1cccc(CN(C(=O)c2cc(-c3cc4c(cc3C(=O)N3Cc5ccccc5C[C@H]3CN3CCOCC3)OCO4)n3c2CCCC3)c2ccc(O)cc2)c1", "8.00 to 8.30"),
]

Next item in the queue.
Prompt: Dear colleague, I am looking for the recorded pIC50 of the following compound: Cn1cnnc1CN(C(=O)c1cc(-c2cc3c(cc2C(=O)N2Cc4ccccc4C[C@H]2CN2CCOCC2)OCO3)n2c1CCCC2)c1ccc(O)cc1
Completion: ≥ 8.30

---

Quick note: these are IC50 numbers for system: BCL-XL (Homo sapiens (Human))
Sequence (Q07817 whole entry): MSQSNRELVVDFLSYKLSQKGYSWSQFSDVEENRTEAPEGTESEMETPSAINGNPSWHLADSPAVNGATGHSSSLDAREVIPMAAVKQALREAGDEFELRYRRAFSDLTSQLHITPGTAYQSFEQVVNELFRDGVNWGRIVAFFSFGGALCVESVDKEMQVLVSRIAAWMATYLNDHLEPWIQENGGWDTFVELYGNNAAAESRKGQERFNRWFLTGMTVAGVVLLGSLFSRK

Field: example entries. Status: answers known.
# molecule, IC50
rows = [
    ("CN1CCN(C(=O)c2ccc(CN(C(=O)c3cc(-c4cc5c(cc4C(=O)N4Cc6ccccc6C[C@H]4CN4CCOCC4)OCO5)n4c3CCCC4)c3ccc(O)cc3)cc2)CC1 [Compound 12]", "≤ 2 µM"),
    ("Cc1c(CN(C(=O)c2cc(-c3cc4c(cc3C(=O)N3Cc5ccccc5C[C@H]3CN3CCOCC3)OCO4)n3c2CCCC3)c2ccc(O)cc2)cccc1[N+](=O)[O-] [Compound 50]", "> 4 µM"),
    ("O=C(c1cc(-c2cc3c(cc2C(=O)N2Cc4ccccc4C[C@H]2CN2CCOCC2)OCO3)n2c1CCCC2)N(Cc1ccc(C(F)(F)F)cc1)c1ccc(O)cc1 [Compound 24]", "> 4 µM"),
]

Now consider a different molecule.
Prompt: Suppose we examine the molecule Cc1cccc(CN(C(=O)c2cc(-c3cc4c(cc3C(=O)N3Cc5ccccc5C[C@H]3CN3CCOCC3)OCO4)n3c2CCCC3)c2ccc(O)cc2)c1 [Compound 14] ; what IC50 value has been reported?
Completion: 2 to 4 µM
